Hello, the source for this data is patent US11566007B2, in case you need it.

Biological target: KRAS Q61H (Homo sapiens (Human), UniProt P01116+P62937, Q61H)
Sequence (P01116-2 other isoform, or with tags, fused parts or gaps Q61H): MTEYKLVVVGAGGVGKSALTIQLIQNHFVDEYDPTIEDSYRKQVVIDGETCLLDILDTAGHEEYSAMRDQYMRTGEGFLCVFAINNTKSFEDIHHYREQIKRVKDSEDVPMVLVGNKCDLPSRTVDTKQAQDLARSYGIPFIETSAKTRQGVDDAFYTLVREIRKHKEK
Sequence (P62937 whole entry): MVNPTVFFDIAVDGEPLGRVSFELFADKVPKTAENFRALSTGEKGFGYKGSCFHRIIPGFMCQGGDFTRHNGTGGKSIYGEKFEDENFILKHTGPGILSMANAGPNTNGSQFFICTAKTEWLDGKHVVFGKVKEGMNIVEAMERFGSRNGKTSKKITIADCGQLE
Assay: Ras-Raf (BRAF RBD) disruption / FRET / MOA assay, KRAS Q61H
Type: biochemical
Conditions: Ras-Raf disruption/FRET/MOA assay; class symbols; read-out: KRAS Q61H FRET data IC50
Experimental: The purpose of this biochemical assay is to measure the ability of test compounds to facilitate ternary complex formation between a nucleotide-loaded Ras isoform and cyclophilin A; the resulting ternary complex disrupts binding to a BRAF^RBD construct, inhibiting Ras signaling through a RAF effector. […]. Compound is present in plate wells as a 10-point 3-fold dilution series starting at a final concentration of 30 μM. […]
pIC50: −log10 of the molar value.
Kindly state pIC50 for each of the entries shown.

Sample records with pIC50:
Query :: Query the reported pIC50 for KRAS Q61H (Homo sapiens (Human), UniProt P01116+P62937, Q61H); item: "C=CC(=O)N1CC[C@H](C(=O)N(C)[C@H](C(=O)N[C@H]2Cc3cc(O)cc(c3)-c3ccc4c(c3)c(c(-c3cnc(N(C)C)s3)n4CC)CC(C)(C)COC(=O)[C@@H]3CCCN(N3)C2=O)C(C)C)C1"
Result :: 5.00 to 6.00

Query :: Look up pIC50 with KRAS Q61H (Homo sapiens (Human), UniProt P01116+P62937, Q61H) for this compound: C=CC(=O)N1C[C@H](C)N(C(=O)N(C)[C@H](C(=O)N[C@H]2Cc3nc(cs3)-c3ccc4c(c3)c(c(-c3cccnc3[C@H](C)OC)n4CC)CC(C)(C)COC(=O)[C@@H]3CCCN(N3)C2=O)C(C)C)[C@@H](C)C1 (atropisomer, axis not shown)
Result :: 7.00 to 8.00

Working through the 5 compounds below one at a time, give pIC50 for each.
1. CCn1c(-c2cccnc2[C@H](C)OC)c2c3cc(ccc31)N1CCO[C@@H](C[C@H](NC(=O)[C@H](C(C)C)N(C)C(=O)[C@@]3(F)CCC(C(=O)C#CC(C)(C)N4CCC4)C3)C(=O)N3CCC[C@H](N3)C(=O)OCC(C)(C)C2)C1 (some centres unmarked)
2. C=CC(=O)N1C[C@@H](N(C)C(=O)N(C)[C@H](C(=O)N[C@H]2Cc3nc(cs3)-c3ccc4c(c3)c(c(-c3cccnc3[C@H](C)OC)n4CC)CC(C)(C)COC(=O)[C@@H]3CCCN(N3)C2=O)C(C)C)[C@@H](C)C1 (atropisomer, axis not shown)
3. CCn1c(-c2cccnc2[C@H](C)OC)c2c3cc(ccc31)-c1csc(n1)C[C@H](NC(=O)CCO[C@@H]1CCN(C(=O)C#CC(C)(C)N3CCC3)C1)C(=O)N1CCC[C@H](N1)C(=O)OCC(C)(C)C2 (atropisomer, axis not shown)
4. C=CC(=O)N1CCN(C(=O)N(C)[C@H](C(=O)N[C@H]2Cc3nc(cs3)-c3ccc4c(c3)c(c(-c3cccnc3[C@H](C)OC)n4CC)CC(C)(C)COC(=O)[C@@H]3CCCN(N3)C2=O)C(C)C)[C@@H]2CC[C@@H]21 (atropisomer, axis not shown)
5. C=CC(=O)N1CC[C@H](C(=O)N(C)[C@H](C(=O)N[C@H]2CN3CCC=C(C3)c3ccc4c(c3)c(c(-c3cccnc3[C@H](C)OC)n4CC)CC(C)(C)COC(=O)[C@@H]3CCCN(N3)C2=O)C(C)C)C1 (atropisomer, axis not shown)

Result ::
1. 5.00 to 6.00
2. 6.00 to 7.00
3. 6.00 to 7.00
4. 7.00 to 8.00
5. 5.00 to 6.00

Query :: Give KRAS Q61H (Homo sapiens (Human), UniProt P01116+P62937, Q61H) pIC50 for C=CC(=O)N(C)C[C@@H]1CCN1C(=O)N(C)[C@H](C(=O)N[C@H]1Cc2nc(cs2)-c2ccc3c(c2)c(c(-c2cccnc2[C@H](C)OC)n3CC)CC(C)(C)COC(=O)[C@@H]2CCCN(N2)C1=O)C(C)C (atropisomer, axis not shown)
Result :: 6.00 to 7.00
